assay summary: Dissociation constant in aqueous system
Type: physicochemical
observation type: pKa

>>> result("CCCCCCCCCCCCCCCCSCC(O)C1OC(O)=C(OC)C1=O (stereo unspecified)")
3.32

* * *

Species on record: Homo sapiens
assay summary: Inhibition of fMLP-induced oxidative burst in a cell density of 5 x 10 e 5 cells/mL
Type: functional, cell-based
pIC50: −log10 of the molar value.
observation type: pIC50

>>> recorded_number("CCCCCCCCCCCCCCCCSCC(O)C1OC(O)=C(OC)C1=O (stereo unspecified)")
6.22

* * *

Species on record: Homo sapiens
assay summary: Inhibition of fMLP-induced oxidative burst in a cell density of 2 x 10 e 6 cells/mL
Format: functional, cell-based
pIC50: −log10 of the molar value.
observation type: pIC50

>>> recorded_number("CCCCCCCCCCCCCCCCSCC(O)C1OC(O)=C(OC)C1=O (stereo unspecified)")
5.90
